- MEASURED_ON: full-length USP7 (Homo sapiens (Human))
- Sequence (Q93009 whole entry): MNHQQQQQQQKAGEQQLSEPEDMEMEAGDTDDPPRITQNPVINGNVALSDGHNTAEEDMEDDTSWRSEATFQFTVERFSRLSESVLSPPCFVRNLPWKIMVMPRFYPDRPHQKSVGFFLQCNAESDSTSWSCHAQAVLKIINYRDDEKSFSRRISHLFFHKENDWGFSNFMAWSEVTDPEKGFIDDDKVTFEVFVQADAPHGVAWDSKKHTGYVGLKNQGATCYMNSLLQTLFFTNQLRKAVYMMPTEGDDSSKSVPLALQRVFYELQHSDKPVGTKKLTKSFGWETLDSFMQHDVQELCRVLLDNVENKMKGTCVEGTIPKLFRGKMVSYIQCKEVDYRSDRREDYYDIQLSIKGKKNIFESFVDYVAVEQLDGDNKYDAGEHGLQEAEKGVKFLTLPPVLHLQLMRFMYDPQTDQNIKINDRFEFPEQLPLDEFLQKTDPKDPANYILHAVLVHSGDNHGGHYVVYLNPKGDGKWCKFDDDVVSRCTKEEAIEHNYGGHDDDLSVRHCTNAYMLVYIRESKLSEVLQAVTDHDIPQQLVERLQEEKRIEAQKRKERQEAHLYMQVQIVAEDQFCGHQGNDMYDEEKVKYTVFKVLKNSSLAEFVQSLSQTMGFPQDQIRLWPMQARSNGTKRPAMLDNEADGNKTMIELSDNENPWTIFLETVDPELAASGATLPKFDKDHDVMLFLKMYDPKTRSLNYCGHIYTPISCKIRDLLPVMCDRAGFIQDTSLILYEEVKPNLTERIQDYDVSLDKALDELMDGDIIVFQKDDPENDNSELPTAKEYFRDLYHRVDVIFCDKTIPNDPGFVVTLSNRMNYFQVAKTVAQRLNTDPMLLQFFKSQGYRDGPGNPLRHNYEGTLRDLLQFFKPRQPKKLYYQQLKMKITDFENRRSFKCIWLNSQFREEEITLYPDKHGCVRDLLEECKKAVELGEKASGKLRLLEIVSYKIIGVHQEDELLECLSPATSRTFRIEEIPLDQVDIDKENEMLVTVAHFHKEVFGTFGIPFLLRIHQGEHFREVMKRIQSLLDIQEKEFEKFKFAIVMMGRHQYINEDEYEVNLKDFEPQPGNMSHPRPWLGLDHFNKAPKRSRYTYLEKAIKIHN
- ASSAY_SUMMARY: Enzymatic assay to determine IC50 of USP7 inhibitors (Ubiquitin-Rhodamine 110 cleavage)
- Type: biochemical
- MEASUREMENT_SETUP: read-out: percent value of inhibition of USP7 activity
List of inhibition at 1 µM values.

COMPOUND	inhibition at 1 µM
CC1(C)C2C(=O)N(Cc3cc4nccc(-c5cccn5CC5CNCCO5)c4s3)C(=O)C21 (stereo not drawn) [Example 9, 2,2,2-trifluoroacetate]	< 20%
CC1(C)C2C(=O)N(Cc3cc4nccc(-c5cc(C(F)(F)F)nn5CC5CNCCO5)c4s3)C(=O)C21 (stereo not drawn) [Example 7, 2,2,2-trifluoroacetate]	< 20%
CC1(C)C2C(=O)N(Cc3cc4nccc(-c5cc(C(F)(F)F)n(CC6CNCCO6)n5)c4s3)C(=O)C21 (stereo not drawn) [Example 6, 2,2,2-trifluoroacetate]	< 20%

====

- MEASURED_ON: full-length USP7 (Homo sapiens (Human))
- ASSAY_SUMMARY: Enzymatic assay to determine IC50 of USP7 inhibitors (Ubiquitin-Rhodamine 110 cleavage)
- Assay type: biochemical
- MEASUREMENT_SETUP: at 1 μM of the test compound; given where IC50 not determined yet; read-out: percent value of inhibition of USP7 activity
Counter-ions that a name gives are not always drawn.

COMPOUND	inhibition at 1 µM
CC1(C)C2C(=O)N(Cc3cc4nccc(-c5cc(F)cnc5O[C@H]5CCCNC5)c4s3)C(=O)C21 (stereo partly drawn) [Example 152, dihydrochloride]	< 20%
Cc1cc(C(F)(F)F)nc(-c2ccnc3cc(CN4C(=O)C5C(C4=O)C5(C)C)sc23)c1C(=O)N1C[C@@H](F)[C@@H](N)C1 (stereo partly drawn) [Example 171, hydrochloride]	50 to 70%
Cc1cc(C(F)(F)F)nc(-c2ccnc3cc(CN4C(=O)C5C(C4=O)C5(C)C)sc23)c1C(=O)N1C[C@@H](C)[C@H](N(C)C)C1 (stereo partly drawn) [Example 172, hydrochloride]	> 70%
CN[C@H]1CCN(C(=O)c2c(C)cc(C(F)(F)F)nc2-c2ccnc3c(F)c(CN4C(=O)C5C(C4=O)C5(C)C)sc23)C1 (stereo partly drawn) [Example 174, hydrochloride]	50 to 70%
CCOC(=O)c1c(C(F)(F)F)c(C)n(C[C@@H]2CNCCO2)c1-c1ccnc2cc(CN3C(=O)C4C(C3=O)C4(C)C)sc12 (stereo partly drawn) [Example 155, hydrochloride]	< 20%
Cc1cc(C(F)(F)F)nc(-c2ccnc3cc(CN4C(=O)C5C(C4=O)C5(C)C)sc23)c1CC1NCCNC1=O (stereo not drawn) [Example 165, hydrochloride]	20 to 49%
Cc1nc(C#N)cc(-c2ccnc3cc(CN4C(=O)C5C(C4=O)C5(C)C)sc23)c1C(=O)NC1CNC1 (stereo not drawn) [Example 16, hydrochloride]	20 to 49%
Cc1cc(C#N)nc(-c2ccnc3cc(CN4C(=O)C5C(C4=O)C5(C)C)sc23)c1C(=O)N(C)CCN(C)C (stereo not drawn) [Example 42]	< 20%
Cc1cc(C(F)(F)F)nc(-c2ccnc3cc(CN4C(=O)C5C(C4=O)C5(C)C)sc23)c1C(=O)NC1CCNCC1 (stereo not drawn) [Example 111, dihydrochloride]	< 20%
Cc1c(N(C)C)cc(-c2ccnc3cc(CN4C(=O)C5C(C4=O)C5(C)C)sc23)n1C[C@@H]1CNCCO1 (stereo partly drawn) [Example 177, hydrochloride]	< 20%
Cc1cc(C(F)(F)F)nc(-c2ccnc3cc(CN4C(=O)C5C(C4=O)C5(C)C)sc23)c1CN1CCCC1=O (stereo not drawn) [Example 39, dihydrochloride]	20 to 49%
CC1(C)C2C(=O)N(Cc3cc4nccc(-c5cc(F)cnc5O[C@H]5CCNC5)c4s3)C(=O)C21 (stereo partly drawn) [Example 157, dihydrochloride]	< 20%
